Quick list: No. of survivals per entry.
- TEST METHOD NOTES: Number of survivals against Plasmodium yoelii in mice (Mus musculus) (out of 5) at 96 mg/kg/day orally on day 28
- Type: organism-based
- Parameters: route oral
- SETUP CONDITIONS: in vivo, po

Past entries and their recorded results:
C=C(c1ccccc1)C1COC2(CCC(Nc3ccc(NC(C)=O)cc3)CC2)OO1 (stereo not given): 0
C=C(c1ccc(-c2ccccc2)cc1)C1COC2(CCC(=O)CC2)OO1 (stereo not given): 0
C=C(c1ccc(-c2ccccc2)cc1)C1COC2(CCC(Nc3cccc4ccccc34)CC2)OO1 (stereo not given): 0

Q: Sample C=C(c1ccc(-c2ccccc2)cc1)C1COC2(CCC(Nc3ccccc3)CC2)OO1 (stereo not given) — what was its No. of survivals?
Ans: 5

Q: Given the entry C=C(c1ccccc1)C1COC2(CCC(Nc3ccc(OC)cc3)CC2)OO1 (stereo not given) , report its measured No. of survivals.
Ans: 0
